Let's look at some compounds and their measured pEC50.
ASSAY SYSTEM: GCase (Homo sapiens, UniProt P04062)
Construct: endogenous in cells
Sequence (P04062 40-536): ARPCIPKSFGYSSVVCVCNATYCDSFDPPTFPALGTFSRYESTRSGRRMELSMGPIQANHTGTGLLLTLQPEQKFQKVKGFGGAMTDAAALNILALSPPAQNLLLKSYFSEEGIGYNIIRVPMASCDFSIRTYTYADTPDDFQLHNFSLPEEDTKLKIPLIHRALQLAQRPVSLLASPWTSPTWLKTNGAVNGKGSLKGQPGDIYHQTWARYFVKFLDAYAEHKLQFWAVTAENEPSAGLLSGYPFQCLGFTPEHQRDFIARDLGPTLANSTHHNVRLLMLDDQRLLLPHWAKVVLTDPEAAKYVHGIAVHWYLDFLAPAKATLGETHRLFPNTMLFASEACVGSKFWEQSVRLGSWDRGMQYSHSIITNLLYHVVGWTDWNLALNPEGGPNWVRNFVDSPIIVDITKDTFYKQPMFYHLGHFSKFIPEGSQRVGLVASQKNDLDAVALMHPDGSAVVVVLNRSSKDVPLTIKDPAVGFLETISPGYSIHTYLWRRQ
METHOD DESCRIPTION: activation of GCase in a live cell PFB assay in HELA cells
pEC50: −log10 of the molar value.

COMPOUND | RESULT
O=C(c1ccc2cc[nH]c2c1)N1CC2CC2(COc2cccnc2C(F)(F)F)C1 (stereo not drawn) | < 4.00
C[C@@H]1CCN(c2cnc3cnn(CC(F)F)c3n2)C[C@H]1COc1cccnc1C(F)(F)F [Compound 48d] | 4.30 to 5.00
CC1CCC(COc2cccnc2C(F)(F)F)CN1c1cnc2cnn(CC3COC3)c2n1 (stereo not drawn) | > 5.00
Cc1cccnc1OCC1CCN(C(=O)Cc2cn(C)c3ccccc23)CC1 | 4.30 to 5.00
Cc1ccccc1OCC1CCCN(C(=O)c2cnn3c(-c4ccccc4C#N)ccc(F)c23)C1 (stereo not drawn) | > 5.00
COc1ccc(OCC2CCN(c3nccnc3N(C)C)CC2)cc1 | < 4.00

Data request: Quick one: pEC50 for Cn1c(-c2ccc(F)cc2)cc2ncc(C(=O)N3CCCC(COc4cccnc4C(F)(F)F)C3)nc21 (stereo not drawn) ?
Data returned: 4.30 to 5.00

Data request: And for COc1ccc(OCC2CCN(Cc3nnc(C4CC(N)C4)n3C)CC2)cc1 (stereo not drawn) ?
Data returned: < 4.00

Data request: And for FC(F)Cn1ncc2ncc(N3C[C@@H]4[C@@H](COc5cccnc5C(F)(F)F)[C@@H]4C3)nc21 ?
Data returned: > 5.00

Data request: And for FC(F)Cn1ncc2ncc(N3CCCC(F)(COc4cccc(C(F)(F)F)n4)C3)nc21 (stereo not drawn) ?
Data returned: 4.30 to 5.00

Data request: And for Cn1c(-c2ccccc2)cc2ncc(C(=O)N3CCCC(COc4cccnc4C(F)(F)F)C3)nc21 (stereo not drawn) ?
Data returned: 4.30 to 5.00

Data request: And for CCn1ncnc1CN1CCC(COc2ccc(OC)cc2)CC1 ?
Data returned: 4.30 to 5.00

* * *

ASSAY SYSTEM: GCase (Homo sapiens)
Construct: endogenous in cells
METHOD DESCRIPTION: activation of GCase in a live cell PFB assay in HELA cells
EXPERIMENTAL READOUT: EC50

Would you please look over these solved cases?
COMPOUND | EC50
COCCn1ncc2ncc(N3C[C@@H](C)C[C@H](COc4cccnc4C(F)(F)F)C3)nc21 [Compound 230b] | < 10 µM
COc1ccc(C(F)(F)C(=O)N2CCCC(COc3ccccc3)C2)cc1 (centres unmarked) | 10 to 50 µM
CC(C)c1cc(C(=O)N2C[C@@H]3[C@@H](COc4cccnc4C(F)(F)F)[C@@H]3C2)[nH]n1 | 50 to 100 µM
O=C(c1cncc(-c2nncs2)n1)N1C[C@@H]2[C@@H](COc3cccc(C(F)(F)F)n3)[C@@H]2C1 | 10 to 50 µM
COCCn1ncc2ncc(N3C[C@@H](C)C[C@@H](COc4cccnc4C(F)(F)F)C3)nc21 [Compound 230a] | 10 to 50 µM

Data request: Quick one: EC50 for O=C(c1ccc2cc[nH]c2c1)N1CCC(Oc2ccc(C(F)(F)F)cn2)CC1 ?
Data returned: 10 to 50 µM

Data request: And for CCn1ncc2ncc(N3CCCC(COc4ccccc4C(F)(F)F)C3)nc21 (centres unmarked) ?
Data returned: 10 to 50 µM

Data request: And for CC1CCC(COc2cccnc2C(F)(F)F)CN1c1cncc(-c2nncs2)n1 (centres unmarked) ?
Data returned: < 10 µM

* * *

ASSAY SYSTEM: GCase (Homo sapiens)
Construct: endogenous in cells
METHOD DESCRIPTION: activation of GCase in a live cell PFB assay in HELA cells
pEC50: −log10 of the molar value.
Let's look at some compounds and their measured pEC50.

Would you please look over these solved cases?
COMPOUND | pEC50
FC(F)Cn1ncc2ncc(N3CCCC(COc4cccnc4C(F)(F)F)C3)nc21 (centres unmarked) | > 5.00
Cc1ccccc1OCC1CCCN(C(=O)c2c(-c3ccccc3)n(C)c3nccnc23)C1 (centres unmarked) | 4.30 to 5.00
C[C@@H]1CC[C@H](COc2cnccc2C(F)(F)F)CN1c1cnc2cnn(CC(F)F)c2n1 | > 5.00
COc1ccc(OCC2CCN(c3nccc(N4CCCC(O)C4)n3)CC2)cc1 (centres unmarked) | > 5.00
C[C@@H]1CC[C@H](COc2ccncc2C(F)(F)F)CN1c1cnc2cnn(CC(F)F)c2n1 | > 5.00
COC1CC(COc2cccnc2C(F)(F)F)CN(c2cnc3cnn(CC(F)F)c3n2)C1 (centres unmarked) | > 5.00
FC(F)Cn1ncc2ncc(N3C[C@@H]4[C@@H](COc5cc(C(F)(F)F)ccn5)[C@@H]4C3)nc21 | 4.30 to 5.00
O=C(Cc1csc(-c2ccccc2)n1)N1CCC(OCCc2ccccc2)CC1 | 4.30 to 5.00
Cn1c(-c2ccc(F)cc2)nc2ncc(C(=O)N3CCCC(COc4cccnc4C(F)(F)F)C3)nc21 (centres unmarked) | 4.30 to 5.00
CC1C(COc2cccnc2C(F)(F)F)CCCN1c1cnc2cnn(CC(F)F)c2n1 (centres unmarked) | > 5.00

Data request: Quick one: pEC50 for CC(=O)N1CCC(c2cc3nc(N4CCCC(COc5ccccc5)C4)cnc3n2C)CC1 (centres unmarked) ?
Data returned: < 4.00

Data request: And for O=C(N1CCCC(COc2ccccc2)C1)C12CCC(C(F)F)(CC1)C2 (centres unmarked) ?
Data returned: 4.30 to 5.00

Data request: And for O=C(C1CCCCC12CC2)N1CCCC(COc2ccccc2)C1 (centres unmarked) ?
Data returned: 4.30 to 5.00

Data request: And for CN1CCc2cc(C(=O)N3CCCC(COc4ccccc4)C3)ccc21 (centres unmarked) ?
Data returned: 4.30 to 5.00

Data request: And for O=C(CC12CCC(CC1)C2)N1CCCC(COc2ccccc2)C1 (centres unmarked) ?
Data returned: 4.30 to 5.00

Data request: And for Cc1ccccc1OCC1CCCN(C(=O)c2cn(C)c3ccn(-c4ccccc4)c(=O)c23)C1 (centres unmarked) ?
Data returned: 4.30 to 5.00

Data request: And for O=C(CCc1cccc(C(F)(F)F)c1)N1CCCC(COc2ccccc2)C1 (centres unmarked) ?
Data returned: 4.30 to 5.00

* * *

ASSAY SYSTEM: GCase (Homo sapiens)
Construct: endogenous in cells
METHOD DESCRIPTION: activation of GCase in a live cell PFB assay in HELA cells
pEC50: −log10 of the molar value.
Let's look at some compounds and their measured pEC50.

Would you please look over these solved cases?
COMPOUND | EXPERIMENTAL READOUT | RESULT
CCCCC1(C(=O)N2CCCC(COc3ccccc3)C2)CCC1 (centres unmarked) [Compound 177] | pEC50 | 4.30 to 5.00
C[C@@H]1C[C@H](COc2cccnc2C(F)(F)F)CN(c2cnc3cnn(CC(F)F)c3n2)C1 [Compound 47a] | pEC50 | > 5.00
Cc1ccccc1OCC1CCCN(C(=O)c2cnn3c(-c4ccccc4)ccc(F)c23)C1 (centres unmarked) [Compound 292] | pEC50 | 4.30 to 5.00
CCc1nc(CNC(=O)N2CCC(COc3ccc(OC)cc3)CC2)no1 [Compound 460] | pEC50 | 4.00 to 4.30

Kindly review the next compound as well.
Data request: Hi! What's the reported pEC50 for O=C(c1cc2cccc(Cl)c2s1)N1CCCC(COc2ccccc2)C1 (centres unmarked) [Compound 218] on GCase (Homo sapiens)?
Data returned: 4.30 to 5.00

* * *

ASSAY SYSTEM: GCase (Homo sapiens, UniProt P04062)
Construct: endogenous in cells
METHOD DESCRIPTION: activation of GCase in a live cell PFB assay in HELA cells
pEC50: −log10 of the molar value.
EXPERIMENTAL READOUT: pEC50

Would you please look over these solved cases?
COMPOUND | pEC50
COc1ccc(OCC2CCN(C(=O)CN3C(=O)CCC3C)CC2)cc1 (stereo not drawn) [Compound 483] | 4.00 to 4.30
CN1CCC(COc2cccc(-c3cnc4ccccc4n3)c2)CC1 [Compound 428] | 4.30 to 5.00
O=C(c1ncc(Cl)s1)N1CCCC(COc2ccccc2)C1 (stereo not drawn) [Compound 137] | < 4.00
C[C@@H](Oc1cccnc1C(F)(F)F)[C@H]1CCCN(c2cncc(-c3nncs3)n2)C1 [Compound 45b] | > 5.00
COc1ccc(OCC2CCN(C(=O)c3ccc(C#CC(C)(C)O)o3)CC2)cc1 [Compound 433] | 4.30 to 5.00
Cc1cccc2cc(C(=O)N3CCC(Oc4ccccc4)CC3)oc12 [Compound 409] | 4.30 to 5.00

Data request: Quick one: pEC50 for FC(F)Cn1ncc2ncc(N3CCC(COc4ncccc4C(F)(F)F)CC3)nc21 [Compound 313] ?
Data returned: 4.30 to 5.00

Data request: And for C[C@@H]1CC[C@H](COc2cccc(C(F)(F)F)n2)CN1c1cnc2cnn(CC(F)F)c2n1 [Compound 269] ?
Data returned: < 4.00

Data request: And for COc1ccc(OCC2CCN(C(=O)Cn3cnnn3)CC2)cc1 [Compound 484] ?
Data returned: < 4.00
